System: SK-MEL-28
Test: NCI 60 cell line screen
Type: cell-based
Settings: Homo sapiens; SK-MEL-28, Melanoma; read-out: Percent growth
Readout name: activity at 10 µM (%)
Please respond with the number in % and leave the unit unwritten.

Solved cases below.
molecule="O=S(=O)(NCCCNc1nccc(-n2cnc3ccccc32)n1)c1ccc(Br)cc1 [12k]" readout_name="activity at 10 µM" uom=% assay_value=102
molecule="O=S(=O)(NCCNc1nccc(-n2cnc3ccccc32)n1)c1ccc(F)cc1 [12b]" readout_name="activity at 10 µM" uom=% assay_value=101
molecule="O=S(=O)(NCCCNc1nccc(-n2cnc3ccccc32)n1)c1cccc2ccccc12 [12n]" readout_name="activity at 10 µM" uom=% assay_value=103
molecule="O=S(=O)(NCCNc1nccc(-n2cnc3ccccc32)n1)c1ccc(C(F)(F)F)cc1 [12e]" readout_name="activity at 10 µM" uom=% assay_value=77.2

--- query ---
Can you look up the measured activity at 10 µM of COc1ccc(S(=O)(=O)NCCCNc2nccc(-n3cnc4ccccc43)n2)cc1 [12m] for me? 106

* * *

System: SK-MEL-28
Experiment: NCI 60 cell line screen
Assay type: cell-based
Details: Homo sapiens; SK-MEL-28, Melanoma; read-out: Percent growth
Procedure: Anticancer profiling over a panel of 60 cancer cell lines was carried out at the National Cancer Institute (NCI), Bethesda, Maryland, USA, https://dtp.cancer.gov/discovery_development/nci-60/methodology.htm (Last visit 22 September 2021), using the standard procedure (detailed procedure is located in the Supplementary Information page 50 s). NCI standard procedure for 60 cell lines assay […] Three dose response parameters are calculated for each experimental agent. […] (TGI) is calculated from Ti = Tz.
Readout name: activity at 10 µM (%)
Numbers only here, please. The scale is %.

compound="O=S(=O)(NCCCNc1nccc(-n2cnc3ccccc32)n1)c1ccc(Cl)cc1 [12j]" readout_name="activity at 10 µM" assay_value=108
compound="Cc1ccc(S(=O)(=O)NCCNc2nccc(-n3cnc4ccccc43)n2)cc1 [12g]" readout_name="activity at 10 µM" assay_value=94.4
compound="O=S(=O)(NCCCNc1nccc(-n2cnc3ccccc32)n1)c1ccc(C(F)(F)F)cc1 [12l]" readout_name="activity at 10 µM" assay_value=103
compound="O=S(=O)(NCCCNc1nccc(-n2cnc3ccccc32)n1)c1ccc(F)cc1 [12i]" readout_name="activity at 10 µM" assay_value=97.9
compound="O=S(=O)(NCCNc1nccc(-n2cnc3ccccc32)n1)c1ccc(Br)cc1 [12d]" readout_name="activity at 10 µM" assay_value=108
compound="O=S(=O)(NCCNc1nccc(-n2cnc3ccccc32)n1)c1ccccc1 [12a]" readout_name="activity at 10 µM" assay_value=108
compound="O=S(=O)(NCCCNc1nccc(-n2cnc3ccccc32)n1)c1ccccc1 [12h]" readout_name="activity at 10 µM" assay_value=105
compound="O=S(=O)(NCCNc1nccc(-n2cnc3ccccc32)n1)c1ccc(Cl)cc1 [12c]" readout_name="activity at 10 µM" assay_value=101

Query compound follows.
Form field: activity at 10 µM recorded for COc1ccc(S(=O)(=O)NCCNc2nccc(-n3cnc4ccccc43)n2)cc1 [12f] with SK-MEL-28 (enter value) 97.9

* * *

Target: V600EBRAF (Homo sapiens, UniProt P15056, V600E)
Sequence (P15056 whole entry V600E): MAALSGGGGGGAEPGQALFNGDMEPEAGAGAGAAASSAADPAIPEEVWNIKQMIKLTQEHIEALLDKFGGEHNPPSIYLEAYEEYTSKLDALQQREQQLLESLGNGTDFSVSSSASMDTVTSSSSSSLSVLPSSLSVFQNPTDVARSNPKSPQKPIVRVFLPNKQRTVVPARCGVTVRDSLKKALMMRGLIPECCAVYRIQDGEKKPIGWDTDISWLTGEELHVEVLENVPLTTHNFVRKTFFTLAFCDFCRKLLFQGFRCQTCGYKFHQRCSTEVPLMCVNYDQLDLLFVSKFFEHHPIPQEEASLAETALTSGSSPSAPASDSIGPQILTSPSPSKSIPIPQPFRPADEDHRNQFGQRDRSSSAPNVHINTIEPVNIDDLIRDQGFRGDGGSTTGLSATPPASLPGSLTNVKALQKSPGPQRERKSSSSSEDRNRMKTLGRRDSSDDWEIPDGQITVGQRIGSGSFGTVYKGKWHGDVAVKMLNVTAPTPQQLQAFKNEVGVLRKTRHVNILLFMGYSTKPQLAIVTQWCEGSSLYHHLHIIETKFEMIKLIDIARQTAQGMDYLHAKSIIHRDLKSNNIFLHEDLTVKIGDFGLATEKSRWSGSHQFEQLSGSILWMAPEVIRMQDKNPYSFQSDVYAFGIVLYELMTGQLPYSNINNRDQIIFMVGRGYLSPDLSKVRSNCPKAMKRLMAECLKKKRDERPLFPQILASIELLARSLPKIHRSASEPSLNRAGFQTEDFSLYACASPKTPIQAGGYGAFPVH
Assay: Reaction Biology kinase HotSpot enzyme assay
Conditions: 1 µM ATP; mean ± S.D. of two separate experiments
Property: IC50; scope: individual molecules
Express your answer in nM, writing the number without its unit.

Before answering, review these 6 worked examples.
molecule="O=S(=O)(NCCCNc1nccc(-n2cnc3ccccc32)n1)c1ccc(Br)cc1 [12k]" subject_of_test="V600EBRAF (Homo sapiens, UniProt P15056, V600E)" assay_value=810
molecule="Cc1ccc(S(=O)(=O)NCCNc2nccc(-n3cnc4ccccc43)n2)cc1 [12g]" subject_of_test="V600EBRAF (Homo sapiens, UniProt P15056, V600E)" assay_value=790
molecule="O=S(=O)(NCCNc1nccc(-n2cnc3ccccc32)n1)c1ccc(F)cc1 [12b]" subject_of_test="V600EBRAF (Homo sapiens, UniProt P15056, V600E)" assay_value=740
molecule="COc1ccc(S(=O)(=O)NCCNc2nccc(-n3cnc4ccccc43)n2)cc1 [12f]" subject_of_test="V600EBRAF (Homo sapiens, UniProt P15056, V600E)" assay_value=980
molecule="COc1ccc(S(=O)(=O)NCCCNc2nccc(-n3cnc4ccccc43)n2)cc1 [12m]" subject_of_test="V600EBRAF (Homo sapiens, UniProt P15056, V600E)" assay_value=820
molecule="O=S(=O)(NCCCNc1nccc(-n2cnc3ccccc32)n1)c1ccc(F)cc1 [12i]" subject_of_test="V600EBRAF (Homo sapiens, UniProt P15056, V600E)" assay_value=530

Please provide the recorded IC50 for O=S(=O)(NCCNc1nccc(-n2cnc3ccccc32)n1)c1ccc(Br)cc1 [12d] , tested on V600EBRAF (Homo sapiens, UniProt P15056, V600E). 910

Next record, please: O=S(=O)(NCCCNc1nccc(-n2cnc3ccccc32)n1)c1ccc(C(F)(F)F)cc1 [12l] 490

Also O=S(=O)(NCCNc1nccc(-n2cnc3ccccc32)n1)c1ccc(C(F)(F)F)cc1 [12e] , if possible. 620
